# protocol.details: CIMA assay, cell viability, CCD1079SK
# particulars: human, CCD1079SK fibroblast cells (noncancerous, proliferating), Average cell viability, CCD; 10 ug/mL
measured.attribute: viability at 72 h, 10 ug/mL (%)
State just the number; it will be interpreted in %.

CCCCCCCCCCCCCCCC(=O)OCC(COC1OC(CO)C(O)C(O)C1O)OC(=O)CCCCCCCCCCCCC (centres unmarked) ... 98

Kindly consider the entry below.
Which viability at 72 h, 10 ug/mL value is on record for CC/C=C\C/C=C\C/C=C\C/C=C\CCC(=O)OC(COC(=O)CCCCCCC/C=C\C/C=C\C/C=C\CC)COC1OC(CO)C(O)C(O)C1O (centres unmarked) ?
96
